The reported numbers originate from patent EP2914280B1.

# study.system: hSSTR1 (Homo sapiens)
# Construct: expressed in transfected cells; host or cells: CHO-K1 (ATCC), pcDNA3.1, G418-selected clonal line; membranes
# measurement.protocol: Somatostatin receptor radioligand binding assay (hSSTR1)
quantity.measured: pKi
# pKi = -log10(concentration in molar units)

Exam item: Give me measured pKi, please, for this compound: CC(=O)N(CCC(=O)NC(CN[C@@H]1CCCCNC(=O)[C@H](Cc2ccc(F)cc2)NC(=O)[C@H]([C@@H](C)O)NC(=O)[C@H](CCCCN)NC(=O)[C@@H](Cc2c[nH]c3ccccc23)NC(=O)[C@H](Cc2ccccc2)NC(=O)[C@H](Cc2ccccc2)NC(=O)[C@H](CCCNC(=N)N)NC1=O)Cc1ccc(O)cc1)C[C@@H]1C[C@@H]2c3cccc4[nH]cc(c34)C[C@H]2N(C)C1 (single isomer, unassigned)
Marked response: 7.61

###

Measured Ki, listed per entry for reference.
# study.system: hSSTR1 (Homo sapiens, UniProt P30872)
# Construct: expressed in transfected cells; host or cells: CHO-K1 (ATCC), pcDNA3.1, G418-selected clonal line; membranes
# Sequence (P30872 whole entry): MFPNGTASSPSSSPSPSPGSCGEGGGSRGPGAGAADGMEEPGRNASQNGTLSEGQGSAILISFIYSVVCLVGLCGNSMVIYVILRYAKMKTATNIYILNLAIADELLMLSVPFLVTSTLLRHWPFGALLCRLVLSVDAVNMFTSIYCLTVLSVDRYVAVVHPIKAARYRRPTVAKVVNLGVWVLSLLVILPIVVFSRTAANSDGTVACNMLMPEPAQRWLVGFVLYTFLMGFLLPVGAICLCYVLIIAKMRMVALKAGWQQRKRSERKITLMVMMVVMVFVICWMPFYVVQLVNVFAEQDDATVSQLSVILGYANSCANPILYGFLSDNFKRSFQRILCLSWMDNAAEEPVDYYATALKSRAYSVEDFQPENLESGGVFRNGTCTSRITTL
# measurement.protocol: Somatostatin receptor radioligand binding assay (hSSTR1)
# experimental.setup: CHO-K1 cell membranes; 0.05 nM [125I-Tyr11]-SRIF-14; 60 minutes at 25°C; read-out: hSSTR1 Ki (nM) ± SEM
Numbered stars: 1 amine (or outer) side, 2 acyl side, 3 side chain; on linkers, the order of the positions; unused ones are H or OH. Bridge positions count the residues as written; N and C are the ends. Square brackets hold non-standard residues; d marks the D form. Peptide text beside a SMILES is read from it. * marks the point of attachment. X1 = CN1C[C@H](CSCCN(CCSC[C@@H]2C[C@@H]3c4cccc5[nH]cc(c45)C[C@H]3N(C)C2)[C@H](CCCCN[*:2])C(=O)[*:1])C[C@@H]2c3cccc4[nH]cc(c34)C[C@H]21; X2 = CN1C[C@H](CSCC(=O)*)C[C@@H]2c3cccc4[nH]cc(c34)C[C@H]21; 4Pal = N[C@@H](Cc1ccncc1)C(=O)O
I only need the number, in nM, no unit after it.

Study these solved cases before continuing.
C[C@@H](O)[C@@H]1NC(=O)[C@H](CCCCN)NC(=O)[C@@H](Cc2c[nH]c3ccccc23)NC(=O)[C@H](Cc2ccncc2)NC(=O)[C@H](Cc2ccccc2)NC(=O)[C@H](CCCNC(=N)N)NC(=O)[C@H](NC(=O)CSC[C@@H]2C[C@@H]3c4cccc5[nH]cc(c45)C[C@H]3N(C)C2)CCCCNC(=O)[C@H](Cc2ccccc2)NC1=O [Compound 24] (X2-[dK]RF[4Pal][dW]KTF; lactam 1-C) :: 47.7
C[C@@H](O)[C@@H]1NC(=O)[C@H](CCCCN)NC(=O)[C@@H](Cc2c[nH]c3ccccc23)NC(=O)[C@H](Cc2ccncc2)NC(=O)[C@H](Cc2ccccc2)NC(=O)[C@H](CCCNC(=N)N)NC(=O)[C@H](NC[C@H](Cc2ccc(O)cc2)NC(=O)CSC[C@@H]2C[C@@H]3c4cccc5[nH]cc(c45)C[C@H]3N(C)C2)CCCCNC(=O)[C@H](Cc2ccccc2)NC1=O :: 38.1
C[C@@H](O)[C@@H]1NC(=O)[C@H](CCCCN)NC(=O)[C@@H](Cc2c[nH]c3ccccc23)NC(=O)[C@H](Cc2ccncc2)NC(=O)[C@H](Cc2ccccc2)NC(=O)[C@H](CCCNC(=N)N)NC(=O)[C@H](NC[C@H](CCCCNC(=O)CSC[C@@H]2C[C@@H]3c4cccc5[nH]cc(c45)C[C@H]3N(C)C2)NC(=O)CSC[C@@H]2C[C@@H]3c4cccc5[nH]cc(c45)C[C@H]3N(C)C2)CCCCNC(=O)[C@H](Cc2ccc(O)cc2)NC1=O :: 106
C[C@@H](O)[C@@H]1NC(=O)[C@H](CCCCN)NC(=O)[C@@H](Cc2c[nH]c3ccccc23)NC(=O)[C@H](Cc2ccccc2)NC(=O)[C@H](Cc2ccccc2)NC(=O)[C@H](CCCNC(=N)N)NC(=O)[C@H](NC[C@H](Cc2ccc(O)cc2)NC(=O)CSC[C@@H]2C[C@@H]3c4cccc5[nH]cc(c45)C[C@H]3N(C)C2)CCCCNC(=O)[C@H](Cc2ccc(F)cc2)NC1=O :: 9

Now look at this one.
Exam item: Respond only with Ki recorded for C[C@@H](O)[C@@H]1NC(=O)[C@H](CCCCN)NC(=O)[C@@H](Cc2c[nH]c3ccccc23)NC(=O)[C@H](Cc2ccncc2)NC(=O)[C@H](Cc2ccccc2)NC(=O)[C@H](CCCNC(=N)N)NC(=O)[C@H](N(CCSC[C@@H]2C[C@@H]3c4cccc5[nH]cc(c45)C[C@H]3N(C)C2)CCSC[C@@H]2C[C@@H]3c4cccc5[nH]cc(c45)C[C@H]3N(C)C2)CCCCNC(=O)[C@H](Cc2ccc(O)cc2)NC1=O [Compound 35] (RF[4Pal][dW]KTY; linker N-C via X1)
Marked response: 99.7

###

# study.system: hSSTR2 (Homo sapiens)
# Construct: host or cells: 'Cells expressing hSSTR2'
# Sequence (P30874 whole entry): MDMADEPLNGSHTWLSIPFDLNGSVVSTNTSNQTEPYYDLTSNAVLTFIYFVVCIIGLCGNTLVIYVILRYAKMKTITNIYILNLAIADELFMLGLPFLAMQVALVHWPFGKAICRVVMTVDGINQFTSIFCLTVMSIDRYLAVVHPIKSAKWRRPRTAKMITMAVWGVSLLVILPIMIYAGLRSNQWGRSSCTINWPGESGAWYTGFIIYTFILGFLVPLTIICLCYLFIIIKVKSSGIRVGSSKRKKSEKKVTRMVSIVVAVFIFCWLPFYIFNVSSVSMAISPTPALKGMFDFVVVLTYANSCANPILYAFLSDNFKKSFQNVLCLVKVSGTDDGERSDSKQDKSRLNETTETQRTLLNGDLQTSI
# measurement.protocol: Somatostatin receptor radioligand binding assay (hSSTR2);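 further: radioligand displacement on membranes of CHO-K1 cells stably transfected with human SSTR2, specific binding taken as total minus binding left with 1000 nM SRIF-14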
Bridge positions count the residues as written; N and C are the ends. Square brackets hold non-standard residues; d marks the D form. Peptide text beside a SMILES is read from it. * marks the point of attachment. X2 = CN1C[C@H](CSCC(=O)*)C[C@@H]2c3cccc4[nH]cc(c34)C[C@H]21; Phe(4-F) = N[C@@H](Cc1ccc(F)cc1)C(=O)O
quantity.measured: Ki (nM)
Dear colleague, please return just the value in nM, with no unit written.

Use these answered entries as a reference point.
C[C@@H](O)[C@@H]1NC(=O)[C@H](CCCCN)NC(=O)[C@@H](Cc2c[nH]c3ccccc23)NC(=O)[C@H](Cc2ccccc2)NC(=O)[C@H](Cc2ccccc2)NC(=O)[C@H](CCCNC(=N)N)NC(=O)[C@H](NC(=O)CSC[C@@H]2C[C@@H]3c4cccc5[nH]cc(c45)C[C@H]3N(C)C2)CCCCNC(=O)[C@H](Cc2ccc(F)cc2)NC1=O [Compound 34] (X2-[dK]RFF[dW]KT[Phe(4-F)]; lactam 1-C) :: 4.55
C[C@@H](O)[C@@H]1NC(=O)[C@H](CCCCN)NC(=O)[C@@H](Cc2c[nH]c3ccccc23)NC(=O)[C@H](Cc2ccncc2)NC(=O)[C@H](Cc2ccccc2)NC(=O)[C@H](CCCNC(=N)N)NC(=O)[C@H](NC[C@H](CCCCNC(=O)C[S+]([O-])C[C@@H]2C[C@@H]3c4cccc5[nH]cc(c45)C[C@H]3N(C)C2)NC(=O)C[S+]([O-])C[C@@H]2C[C@@H]3c4cccc5[nH]cc(c45)C[C@H]3N(C)C2)CCCCNC(=O)[C@H](Cc2ccccc2)NC1=O (stereo partly drawn) :: 0.08

Exam item: State the measured Ki (hSSTR2 (Homo sapiens)) of C[C@@H](O)[C@@H]1NC(=O)[C@H](CCCCN)NC(=O)[C@@H](Cc2c[nH]c3ccccc23)NC(=O)[C@H](Cc2ccccc2)NC(=O)[C@H](Cc2ccccc2)NC(=O)[C@H](CCCNC(=N)N)NC(=O)[C@H](NCCSC[C@@H]2C[C@@H]3c4cccc5[nH]cc(c45)C[C@H]3N(C)C2)CCCCNC(=O)[C@H](Cc2ccccc2)NC1=O
Marked response: 2.23

###

Recorded log10 of Ki by entry
# study.system: hSSTR3 (Homo sapiens, UniProt P32745)
# Construct: expressed in transfected cells; host or cells: CHO-K1 (ATCC), pcDNA3.1, G418-selected clonal line; membranes
# Sequence (P32745 whole entry): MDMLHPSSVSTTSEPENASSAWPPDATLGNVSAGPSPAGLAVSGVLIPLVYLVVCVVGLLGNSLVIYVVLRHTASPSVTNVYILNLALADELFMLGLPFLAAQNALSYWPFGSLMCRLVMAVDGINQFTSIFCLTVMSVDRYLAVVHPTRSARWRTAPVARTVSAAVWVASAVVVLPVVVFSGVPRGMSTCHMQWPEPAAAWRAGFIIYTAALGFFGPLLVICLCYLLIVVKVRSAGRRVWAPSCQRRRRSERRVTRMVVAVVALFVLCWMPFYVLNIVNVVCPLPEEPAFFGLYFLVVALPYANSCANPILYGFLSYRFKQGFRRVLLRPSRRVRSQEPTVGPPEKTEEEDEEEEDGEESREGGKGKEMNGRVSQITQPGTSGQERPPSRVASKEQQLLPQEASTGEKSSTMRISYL
# measurement.protocol: Somatostatin receptor radioligand binding assay (hSSTR3)
# experimental.setup: CHO-K1 cell membranes; 0.05 nM [125I-Tyr11]-SRIF-14; 60 minutes at 25°C; read-out: hSSTR3 Ki (nM) ± SEM
Field: value | Transform: log10 | Quantity: Ki | Unit: nM

Use the examples below as a reference point.
CC(=O)N(CCC(=O)NC(CN[C@@H]1CCCCNC(=O)[C@H](Cc2ccc(F)cc2)NC(=O)[C@H]([C@@H](C)O)NC(=O)[C@H](CCCCN)NC(=O)[C@@H](Cc2c[nH]c3ccccc23)NC(=O)[C@H](Cc2ccccc2)NC(=O)[C@H](Cc2ccccc2)NC(=O)[C@H](CCCNC(=N)N)NC1=O)Cc1ccc(O)cc1)C[C@@H]1C[C@@H]2c3cccc4[nH]cc(c34)C[C@H]2N(C)C1 (single isomer, unassigned) [Compound 27] :: -0.05
C[C@@H](O)[C@@H]1NC(=O)[C@H](CCCCN)NC(=O)[C@@H](Cc2c[nH]c3ccccc23)NC(=O)[C@H](Cc2ccncc2)NC(=O)[C@H](Cc2ccccc2)NC(=O)[C@H](CCCNC(=N)N)NC(=O)[C@H](NC[C@H](Cc2ccc(O)cc2)NC(=O)CSC[C@@H]2C[C@@H]3c4cccc5[nH]cc(c45)C[C@H]3N(C)C2)CCCCNC(=O)[C@H](Cc2ccccc2)NC1=O [Compound 4] :: 1.03
C[C@@H](O)[C@@H]1NC(=O)[C@H](CCCCN)NC(=O)[C@@H](Cc2c[nH]c3ccccc23)NC(=O)[C@H](Cc2ccncc2)NC(=O)[C@H](Cc2ccccc2)NC(=O)[C@H](CCCNC(=N)N)NC(=O)[C@H](NC[C@H](CCCCNC(=O)CSC[C@@H]2C[C@@H]3c4cccc5[nH]cc(c45)C[C@H]3N(C)C2)NC(=O)CSC[C@@H]2C[C@@H]3c4cccc5[nH]cc(c45)C[C@H]3N(C)C2)CCCCNC(=O)[C@H](Cc2ccc(O)cc2)NC1=O [Compound 8] :: 0.88
C[C@@H](O)[C@@H]1NC(=O)[C@H](CCCCN)NC(=O)[C@@H](Cc2c[nH]c3ccccc23)NC(=O)[C@H](Cc2ccncc2)NC(=O)[C@H](Cc2ccccc2)NC(=O)[C@H](CCCNC(=N)N)NC(=O)[C@H](NC[C@H](CCCCNC(=O)CSC[C@@H]2C[C@@H]3c4cccc5[nH]cc(c45)C[C@H]3N(C)C2)NC(=O)CSC[C@@H]2C[C@@H]3c4cccc5[nH]cc(c45)C[C@H]3N(C)C2)CCCCNC(=O)[C@H](Cc2ccccc2)NC1=O [Compound 9] :: 0.60

Exam item: Report log10 of Ki on hSSTR3 (Homo sapiens, UniProt P32745) for this entry: C[C@@H](O)[C@@H]1NC(=O)[C@H](CCCCN)NC(=O)[C@@H](Cc2c[nH]c3ccccc23)NC(=O)[C@H](Cc2ccccc2)NC(=O)[C@H](Cc2ccccc2)NC(=O)[C@H](CCCNC(=N)N)NC(=O)[C@H](NC[C@H](Cc2ccc(O)cc2)NC(=O)CSC[C@@H]2C[C@@H]3c4cccc5[nH]cc(c45)C[C@H]3N(C)C2)CCCCNC(=O)[C@H](Cc2ccc(F)cc2)NC1=O [Compound 5]
Marked response: 0.18
